B1: CCDC6 (parent)
chain: FTPPTSLTRAGMSYYNSPGLHVQH

# Variants of: B1
# assay-overview: protein stability index of a GFP-peptide fusion (GPS, HEK-293T) (PSI 1-6); higher = more stable;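 also: lentivirally expressed fusions sorted by FACS into six bins by GFP to DsRed ratio, PSI derived from sequencing read proportions per bin multiplied by bin number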
# experimental-context: c terminus: a fixed tail appended
So basically: protein stability index at 2 or higher? That is condition met. Lower than 2? That is condition not met.

Examples with answers:
| variant-descriptor | assigned-category |
| --- | --- |
| Q23C | condition not met |
| H24R | condition not met |
| P18D | condition not met |
| L20R | condition met |
| Y14E | condition met |
| G19E | condition met |
| Y15L | condition met |
| R9G | condition not met |

Alright, here's another variant for you.
Request: State whether the measured protein stability index reaches 2, counting equality as reaching it, for L7N
Result: condition not met
